test.system: Free fatty acid receptor 1 (Homo sapiens)
test.description: Agonist activity at human FFA1 expressed in CHO cells assessed as intracellular Ca2+ level at 300 nM measured for 90 secs by Fluo-4 AM-based FLIPR assay
Type: functional, cell-based
Rule: criterion met for Activity not less than 60%, criterion not met for anything less.

Here are 5 molecules together with their reported answers.
molecule="Cc1ccc(C)n1-c1cccc(COc2ccc3c(c2)OCC3CC(=O)O)c1 (stereo not drawn)" test_system="Free fatty acid receptor 1 (Homo sapiens)" category="criterion met"
molecule="Cc1cccc(C)c1-c1cccc(COc2ccc3c(c2)OCC3CC(=O)O)c1 (stereo not drawn)" test_system="Free fatty acid receptor 1 (Homo sapiens)" category="criterion met"
molecule="O=C(O)CC1COc2cc(OCc3cccc(N4CCS(=O)(=O)CC4)c3)ccc21 (stereo not drawn)" test_system="Free fatty acid receptor 1 (Homo sapiens)" category="criterion not met"
molecule="O=C(O)CC1COc2cc(OCc3cccc(N4CCOCC4)c3)ccc21 (stereo not drawn)" test_system="Free fatty acid receptor 1 (Homo sapiens)" category="criterion not met"
molecule="O=C(O)CC1COc2cc(OCc3cccc(N4CCCC4)c3)ccc21 (stereo not drawn)" test_system="Free fatty acid receptor 1 (Homo sapiens)" category="criterion not met"

Query block: Is it the case that O=C(O)CC1COc2cc(OCc3cccc(N4CCCCC4)c3)ccc21 (stereo not drawn) has Activity reaching or exceeding 60%?
Result block: criterion not met

Query block: Is it the case that O=C(O)CC1COc2cc(OCc3cccc(-n4cccc4)c3)ccc21 (stereo not drawn) has Activity reaching or exceeding 60%?
Result block: criterion not met

Query block: Is it the case that O=C(O)CC1COc2cc(OCc3cccc(N4CCSCC4)c3)ccc21 (stereo not drawn) has Activity reaching or exceeding 60%?
Result block: criterion not met

---

test.system: Free fatty acid receptor 1 (Homo sapiens, UniProt O14842)
Sequence (O14842 whole entry): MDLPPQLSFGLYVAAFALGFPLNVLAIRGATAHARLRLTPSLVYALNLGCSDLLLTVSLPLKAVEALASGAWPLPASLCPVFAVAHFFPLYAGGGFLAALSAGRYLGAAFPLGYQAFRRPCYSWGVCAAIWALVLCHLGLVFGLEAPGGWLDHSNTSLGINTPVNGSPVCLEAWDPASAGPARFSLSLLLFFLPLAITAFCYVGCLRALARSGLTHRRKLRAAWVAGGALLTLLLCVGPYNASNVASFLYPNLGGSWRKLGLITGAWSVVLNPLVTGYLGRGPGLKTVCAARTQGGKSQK
test.description: Agonist activity at human FFA1 expressed in CHO cells assessed as intracellular Ca2+ level at 100 nM measured for 90 secs by Fluo-4 AM-based FLIPR assay
Assay type: functional, cell-based
measurement.name: Activity (%)
Give bare numbers, in %.

compound="CCOc1ccc(COc2ccc3c(c2)OCC3CC(=O)O)cc1-n1c(C)ccc1C (stereo not given)" measurement_name=Activity value_unit=% assay_result=54.6

List reported Activity for each of these compounds:
1. O=C(O)CC1COc2cc(OCc3cccc(N4CCOCC4)c3)ccc21 (stereo not given)
2. Cc1cc(C(=O)N(C)C)c(C)n1-c1cccc(COc2ccc3c(c2)OCC3CC(=O)O)c1 (stereo not given)

Result block:
1: 41.2; 2: 25.7

List reported Activity for each of these compounds:
1. Cc1ccc(C)n1-c1cc(COc2ccc3c(c2)OCC3CC(=O)O)ccc1OCc1ccccc1 (stereo not given)
2. Cc1cccc(C)c1-c1cccc(COc2ccc3c(c2)OCC3CC(=O)O)c1 (stereo not given)

Result block:
40.8
62.6

---

test.system: Free fatty acid receptor 1 (Homo sapiens, UniProt O14842)
test.description: Agonist activity at human FFA1 expressed in CHO cells assessed as intracellular Ca2+ level at 100 nM measured for 90 secs by Fluo-4 AM-based FLIPR assay
Assay type: functional, cell-based
Rule: Fulfilled for Activity not less than 40%, Not fulfilled for anything less.

compound="COCc1cc(C)n(-c2cccc(COc3ccc4c(c3)OCC4CC(=O)O)c2)c1C (stereo not drawn)" test_system="Free fatty acid receptor 1 (Homo sapiens, UniProt O14842)" category="Not fulfilled"

Query block: Is it the case that O=C(O)CC1COc2cc(OCc3cccc(-n4cccc4)c3)ccc21 (stereo not drawn) has Activity reaching or exceeding 40%?
Result block: Not fulfilled
